Origin of values: patent US12227500B2

molecular target: panel of 60 human kinases (Homo sapiens); construct: purchased Reaction Biology Corp; test: Radiolabeled ATP kinase assay, panel of 60 kinases (Table S5); assay type: biochemical; conditions: P38g; 0.1 μM; 10 μM ATP; read-out: % Enzyme Activity (relative to DSMO controls)
Kindly supply the reported remaining activity at 0.1 µM values for the records listed here.
All answers are understood in %, so give the number only.

Given the entry COc1ccccc1-c1c[nH]c2ncc(-c3ccc(CN4CCN(C)CC4)cc3)cc12 , what remaining activity at 0.1 µM was observed with panel of 60 human kinases (Homo sapiens)?
103

Given the entry CN1CCN(Cc2ccc(-c3cnc4[nH]cc(-c5ccc6[nH]ccc6c5)c4c3)cc2)CC1 [Compound 1, reference compound] , what remaining activity at 0.1 µM was observed with panel of 60 human kinases (Homo sapiens)?
99.3

Given the entry CN1CCN(Cc2ccc(-c3cnc4[nH]cc(-c5ccccc5Cl)c4c3)cc2)CC1 , what remaining activity at 0.1 µM was observed with panel of 60 human kinases (Homo sapiens)?
109

Given the entry CN1CCN(Cc2ccc(-c3cnc4[nH]cc(-c5ccoc5)c4c3)cc2)CC1 , what remaining activity at 0.1 µM was observed with panel of 60 human kinases (Homo sapiens)?
116

Given the entry CN1CCN(Cc2ccc(-c3cnc4[nH]cc(-c5cnn(Cc6ccccc6)c5)c4c3)cc2)CC1 , what remaining activity at 0.1 µM was observed with panel of 60 human kinases (Homo sapiens)?
106

====

target: panel of 60 human kinases (Homo sapiens); construct: purchased Reaction Biology Corp; assay: Radiolabeled ATP kinase assay, panel of 60 kinases (Table S5); assay type: biochemical; conditions: FGFR3; 0.1 μM; 10 μM ATP; read-out: % Enzyme Activity (relative to DSMO controls)
Kindly supply the reported remaining activity at 0.1 µM values for the records listed here.
Note: state the figure and append the unit.

Consider the compound CN1CCN(Cc2ccc(-c3cnc4[nH]cc(-c5ccccc5Cl)c4c3)cc2)CC1 and give its measured remaining activity at 0.1 µM.
42.3%

Consider the compound CN1CCN(Cc2ccc(-c3cnc4[nH]cc(-c5ccc6c(c5)OCCO6)c4c3)cc2)CC1 and give its measured remaining activity at 0.1 µM.
73.4%

Consider the compound CN1CCN(Cc2ccc(-c3cnc4[nH]cc(-c5cccc(Cl)c5)c4c3)cc2)CC1 and give its measured remaining activity at 0.1 µM.
70.1%

Consider the compound COc1ccccc1-c1c[nH]c2ncc(-c3ccc(CN4CCN(C)CC4)cc3)cc12 and give its measured remaining activity at 0.1 µM.
82.1%

Consider the compound CN1CCN(Cc2ccc(-c3cnc4[nH]cc(-c5ccncc5)c4c3)cc2)CC1 and give its measured remaining activity at 0.1 µM.
85.9%

Consider the compound Cc1nn(C)c(C)c1-c1c[nH]c2ncc(-c3ccc(CN4CCN(C)CC4)cc3)cc12 and give its measured remaining activity at 0.1 µM.
82%

Consider the compound CN1CCN(Cc2ccc(-c3cnc4[nH]cc(-c5ccc6[nH]ccc6c5)c4c3)cc2)CC1 [Compound 1, reference compound] and give its measured remaining activity at 0.1 µM.
43.5%

Consider the compound CN1CCN(Cc2ccc(-c3cnc4[nH]cc(-c5cnn(Cc6ccccc6)c5)c4c3)cc2)CC1 and give its measured remaining activity at 0.1 µM.
76.6%

Consider the compound CN1CCN(Cc2ccc(-c3cnc4[nH]cc(-c5ccoc5)c4c3)cc2)CC1 and give its measured remaining activity at 0.1 µM.
70.7%

====

Biological target: MLK1/MAP3K9 (Homo sapiens)
Construct: purchased Reaction Biology Corp
Sequence (P80192 whole entry): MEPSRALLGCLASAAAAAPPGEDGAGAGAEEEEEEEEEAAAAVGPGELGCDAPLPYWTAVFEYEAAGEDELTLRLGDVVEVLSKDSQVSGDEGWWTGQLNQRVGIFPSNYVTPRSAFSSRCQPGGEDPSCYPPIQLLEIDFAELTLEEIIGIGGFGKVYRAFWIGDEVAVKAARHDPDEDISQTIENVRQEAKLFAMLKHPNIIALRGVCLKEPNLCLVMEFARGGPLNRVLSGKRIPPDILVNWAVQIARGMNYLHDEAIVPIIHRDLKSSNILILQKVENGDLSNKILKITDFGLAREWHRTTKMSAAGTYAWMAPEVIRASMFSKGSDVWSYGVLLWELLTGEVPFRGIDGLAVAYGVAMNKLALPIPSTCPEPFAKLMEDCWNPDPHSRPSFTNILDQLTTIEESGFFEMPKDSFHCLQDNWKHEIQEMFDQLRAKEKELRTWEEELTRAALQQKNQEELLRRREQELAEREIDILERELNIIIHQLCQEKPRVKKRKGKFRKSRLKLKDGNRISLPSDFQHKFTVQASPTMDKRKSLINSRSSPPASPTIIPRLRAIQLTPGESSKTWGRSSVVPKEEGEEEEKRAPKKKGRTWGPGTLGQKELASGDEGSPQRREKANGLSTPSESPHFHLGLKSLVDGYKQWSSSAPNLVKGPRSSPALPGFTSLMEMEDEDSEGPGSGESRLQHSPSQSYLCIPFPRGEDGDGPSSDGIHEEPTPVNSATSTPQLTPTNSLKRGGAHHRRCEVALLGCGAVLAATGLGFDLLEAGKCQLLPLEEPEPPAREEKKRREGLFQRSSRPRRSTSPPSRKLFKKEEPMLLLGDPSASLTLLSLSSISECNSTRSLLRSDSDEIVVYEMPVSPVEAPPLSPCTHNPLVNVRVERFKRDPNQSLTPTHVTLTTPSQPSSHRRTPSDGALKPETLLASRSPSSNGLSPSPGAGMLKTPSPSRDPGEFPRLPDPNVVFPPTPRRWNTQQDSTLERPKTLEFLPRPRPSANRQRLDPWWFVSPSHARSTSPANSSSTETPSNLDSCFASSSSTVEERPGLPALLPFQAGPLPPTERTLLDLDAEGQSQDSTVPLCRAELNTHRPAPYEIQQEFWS
Assay: Radiolabeled ATP kinase assay (Reaction Biology Corp.), MLK1
Format: biochemical
Settings: [Cmpd] 0.1 μM; 10 μM ATP; read-out: % Enzyme Activity Remaining (relative to DMSO controls), MLK1/MAP3K9, Data 1
Method: Meanwhile, the same analogs were analyzed in a radiolabeled ATP assay (10 μM ATP; Reaction Biology Corp.) to compare the extent to which they could inhibit the activity of HGK, MLK1, or MLK3 in a cell-free environment (Table S3 and S4).
reported property: remaining activity at 0.1 µM (%)
All answers are understood in %, so give the number only.

Consider the compound Cc1ccc(C)c(-c2c[nH]c3ncc(-c4ccc(CN5CCN(C)CC5)cc4)cc23)c1 [Compound 7af] and give its measured remaining activity at 0.1 µM.
92.6

Consider the compound CN1CCN(Cc2ccc(-c3cnc4[nH]cc(-c5ccncc5)c4c3)cc2)CC1 [Compound 7n] and give its measured remaining activity at 0.1 µM.
88.9

Consider the compound CN1CCN(Cc2ccc(-c3cnc4[nH]cc(-c5ccc6[nH]ncc6c5)c4c3)cc2)CC1 [Compound 7v] and give its measured remaining activity at 0.1 µM.
43

Consider the compound CN1CCN(Cc2ccc(-c3cnc4[nH]cc(-c5cc6ccccc6s5)c4c3)cc2)CC1 [Compound 7g] and give its measured remaining activity at 0.1 µM.
55.9

====

molecular target: MLK1/MAP3K9 (Homo sapiens); construct: purchased Reaction Biology Corp; test: Radiolabeled ATP kinase assay (Reaction Biology Corp.), MLK1; type: biochemical; conditions: [Cmpd] 0.1 μM; 10 μM ATP; read-out: % Enzyme Activity Remaining (relative to DMSO controls), MLK1/MAP3K9, Data 1
reported property: remaining activity at 0.1 µM (%)
All answers are understood in %, so give the number only.

Consider the compound CN1CCN(Cc2ccc(-c3cnc4[nH]cc(-c5cccc6c5oc5ccccc56)c4c3)cc2)CC1 [Compound 7c] and give its measured remaining activity at 0.1 µM.
88.3

Consider the compound Cc1cc(-c2c[nH]c3ncc(-c4ccc(CN5CCN(C)CC5)cc4)cc23)cnc1N [Compound 7l] and give its measured remaining activity at 0.1 µM.
53.2

Consider the compound CNC(=O)Nc1ccc(-c2c[nH]c3ncc(-c4ccc(CN5CCN(C)CC5)cc4)cc23)cc1 [Compound 7am] and give its measured remaining activity at 0.1 µM.
51

Consider the compound Cc1ccc(S(=O)(=O)n2cc(-c3ccc4[nH]ccc4c3)c3cc(-c4ccc(C=O)cc4)cnc32)cc1 [Compound 11] and give its measured remaining activity at 0.1 µM.
95

Consider the compound CCOc1ccc(-c2c[nH]c3ncc(-c4ccc(CN5CCN(C)CC5)cc4)cc23)cn1 [Compound 7b] and give its measured remaining activity at 0.1 µM.
89.2

Consider the compound C[C@@H](NC(=O)Nc1cccc(-c2c[nH]c3ncc(-c4ccc(CN5CCN(C)CC5)cc4)cc23)c1)c1ccccc1 [Compound 7ax] and give its measured remaining activity at 0.1 µM.
93.5

Consider the compound CN1CCN(Cc2ccc(-c3cnc4[nH]cc(-c5cccc(N)c5)c4c3)cc2)CC1 [Compound 7h] and give its measured remaining activity at 0.1 µM.
48.8

====

target: panel of 60 human kinases (Homo sapiens, UniProt P42684); construct: purchased Reaction Biology Corp; assay: Radiolabeled ATP kinase assay, panel of 60 kinases (Table S5); format: biochemical; conditions: ABL2/ARG; 0.1 μM; 10 μM ATP; read-out: % Enzyme Activity (relative to DSMO controls)
Sequence (P42684 whole entry): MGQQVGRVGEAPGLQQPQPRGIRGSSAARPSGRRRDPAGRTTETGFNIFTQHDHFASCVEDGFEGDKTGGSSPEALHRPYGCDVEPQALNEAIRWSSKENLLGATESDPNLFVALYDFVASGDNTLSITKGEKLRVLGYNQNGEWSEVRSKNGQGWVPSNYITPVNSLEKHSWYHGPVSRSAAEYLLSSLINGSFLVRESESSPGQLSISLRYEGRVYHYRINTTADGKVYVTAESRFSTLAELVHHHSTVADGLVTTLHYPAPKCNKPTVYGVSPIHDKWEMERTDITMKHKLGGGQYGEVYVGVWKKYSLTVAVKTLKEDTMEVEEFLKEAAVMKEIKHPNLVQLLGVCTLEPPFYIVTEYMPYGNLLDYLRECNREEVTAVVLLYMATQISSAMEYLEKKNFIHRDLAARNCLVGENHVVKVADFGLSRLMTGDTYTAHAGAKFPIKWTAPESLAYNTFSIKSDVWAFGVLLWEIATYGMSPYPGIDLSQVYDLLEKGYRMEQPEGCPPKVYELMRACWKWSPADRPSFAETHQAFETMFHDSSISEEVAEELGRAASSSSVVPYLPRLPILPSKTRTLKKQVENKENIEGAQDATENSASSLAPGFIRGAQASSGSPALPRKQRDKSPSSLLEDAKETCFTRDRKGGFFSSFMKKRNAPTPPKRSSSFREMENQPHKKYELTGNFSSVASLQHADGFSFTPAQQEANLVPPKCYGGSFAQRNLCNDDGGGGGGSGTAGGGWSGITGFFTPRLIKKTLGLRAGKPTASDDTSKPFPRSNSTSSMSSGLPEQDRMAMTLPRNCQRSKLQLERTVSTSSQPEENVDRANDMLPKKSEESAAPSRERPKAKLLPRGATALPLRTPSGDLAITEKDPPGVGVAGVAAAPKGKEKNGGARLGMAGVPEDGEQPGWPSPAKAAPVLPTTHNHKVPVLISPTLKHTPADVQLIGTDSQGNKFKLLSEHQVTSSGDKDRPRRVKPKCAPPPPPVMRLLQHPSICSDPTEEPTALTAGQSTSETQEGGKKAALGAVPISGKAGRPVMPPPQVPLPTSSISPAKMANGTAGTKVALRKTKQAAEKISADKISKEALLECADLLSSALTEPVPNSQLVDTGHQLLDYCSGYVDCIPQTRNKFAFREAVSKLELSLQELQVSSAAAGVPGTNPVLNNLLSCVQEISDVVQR
Returns: string. Value is met if measured remaining activity at 0.1 µM is below 70%, and not met if it is greater than or equal to it.

Answer whether the compound Cc1nn(C)c(C)c1-c1c[nH]c2ncc(-c3ccc(CN4CCN(C)CC4)cc3)cc12 [Compound 7ai] has remaining activity at 0.1 µM strictly less than 70%
met

Answer whether the compound CN1CCN(Cc2ccc(-c3cnc4[nH]cc(-c5ccc6[nH]ccc6c5)c4c3)cc2)CC1 [Compound 1, reference compound] has remaining activity at 0.1 µM strictly less than 70%
met

Answer whether the compound CN1CCN(Cc2ccc(-c3cnc4[nH]cc(-c5ccncc5)c4c3)cc2)CC1 [Compound 7n] has remaining activity at 0.1 µM strictly less than 70%
not met

Answer whether the compound CN1CCN(Cc2ccc(-c3cnc4[nH]cc(-c5cnn(Cc6ccccc6)c5)c4c3)cc2)CC1 [Compound 7ah] has remaining activity at 0.1 µM strictly less than 70%
not met

Answer whether the compound CN1CCN(Cc2ccc(-c3cnc4[nH]cc(-c5ccccc5Cl)c4c3)cc2)CC1 [Compound 7as] has remaining activity at 0.1 µM strictly less than 70%
met

Answer whether the compound CN1CCN(Cc2ccc(-c3cnc4[nH]cc(-c5cccc(Cl)c5)c4c3)cc2)CC1 [Compound 7ad] has remaining activity at 0.1 µM strictly less than 70%
not met

Answer whether the compound CN1CCN(Cc2ccc(-c3cnc4[nH]cc(-c5ccc6c(c5)OCCO6)c4c3)cc2)CC1 [Compound 7d] has remaining activity at 0.1 µM strictly less than 70%
not met

Answer whether the compound CN1CCN(Cc2ccc(-c3cnc4[nH]cc(-c5ccoc5)c4c3)cc2)CC1 [Compound 7w] has remaining activity at 0.1 µM strictly less than 70%
not met

Answer whether the compound COc1ccccc1-c1c[nH]c2ncc(-c3ccc(CN4CCN(C)CC4)cc3)cc12 [Compound 7at] has remaining activity at 0.1 µM strictly less than 70%
met

====

molecular target: panel of 60 human kinases (Homo sapiens, UniProt O60285); construct: purchased Reaction Biology Corp; assay: Radiolabeled ATP kinase assay, panel of 60 kinases (Table S5); type: biochemical; details: ARK5/NUAK1; 0.1 μM; 10 μM ATP; read-out: % Enzyme Activity (relative to DSMO controls)
Sequence (O60285 whole entry): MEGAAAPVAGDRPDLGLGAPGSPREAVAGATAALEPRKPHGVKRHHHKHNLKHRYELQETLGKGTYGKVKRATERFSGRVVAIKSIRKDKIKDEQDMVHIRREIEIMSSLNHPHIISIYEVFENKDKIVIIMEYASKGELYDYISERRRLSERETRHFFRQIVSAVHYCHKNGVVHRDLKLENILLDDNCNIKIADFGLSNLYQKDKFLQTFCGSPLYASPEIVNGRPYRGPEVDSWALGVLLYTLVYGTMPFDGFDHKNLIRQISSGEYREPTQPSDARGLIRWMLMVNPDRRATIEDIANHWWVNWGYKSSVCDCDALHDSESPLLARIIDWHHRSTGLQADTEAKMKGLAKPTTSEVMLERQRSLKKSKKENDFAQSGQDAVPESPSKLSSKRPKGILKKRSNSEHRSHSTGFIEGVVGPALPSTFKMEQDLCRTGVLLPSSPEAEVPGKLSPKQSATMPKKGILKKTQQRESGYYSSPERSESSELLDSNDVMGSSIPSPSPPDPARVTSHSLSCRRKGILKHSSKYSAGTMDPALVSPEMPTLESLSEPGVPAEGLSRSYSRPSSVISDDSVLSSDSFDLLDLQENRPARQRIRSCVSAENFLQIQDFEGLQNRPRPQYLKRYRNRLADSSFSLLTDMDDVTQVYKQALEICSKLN
reported property: remaining activity at 0.1 µM

Consider the molecule CN1CCN(Cc2ccc(-c3cnc4[nH]cc(-c5ccccc5Cl)c4c3)cc2)CC1 and give its measured remaining activity at 0.1 µM.
4.44%

Consider the molecule Cc1nn(C)c(C)c1-c1c[nH]c2ncc(-c3ccc(CN4CCN(C)CC4)cc3)cc12 and give its measured remaining activity at 0.1 µM.
21.6%

Consider the molecule CN1CCN(Cc2ccc(-c3cnc4[nH]cc(-c5cnn(Cc6ccccc6)c5)c4c3)cc2)CC1 and give its measured remaining activity at 0.1 µM.
0.03%

Consider the molecule COc1ccccc1-c1c[nH]c2ncc(-c3ccc(CN4CCN(C)CC4)cc3)cc12 and give its measured remaining activity at 0.1 µM.
22.9%

Consider the molecule CN1CCN(Cc2ccc(-c3cnc4[nH]cc(-c5ccoc5)c4c3)cc2)CC1 and give its measured remaining activity at 0.1 µM.
14.8%

Consider the molecule CN1CCN(Cc2ccc(-c3cnc4[nH]cc(-c5cccc(Cl)c5)c4c3)cc2)CC1 and give its measured remaining activity at 0.1 µM.
22.4%

Consider the molecule CN1CCN(Cc2ccc(-c3cnc4[nH]cc(-c5ccncc5)c4c3)cc2)CC1 and give its measured remaining activity at 0.1 µM.
39.3%

Consider the molecule CN1CCN(Cc2ccc(-c3cnc4[nH]cc(-c5ccc6c(c5)OCCO6)c4c3)cc2)CC1 and give its measured remaining activity at 0.1 µM.
20.8%

Consider the molecule CN1CCN(Cc2ccc(-c3cnc4[nH]cc(-c5ccc6[nH]ccc6c5)c4c3)cc2)CC1 [Compound 1, reference compound] and give its measured remaining activity at 0.1 µM.
5.96%
